- method: Biodistribution of ^131 I-3 in CD-1 Mice, normal and blocked with lisinopril
- Type: in vivo
- protocol-conditions: mouse, small intestine, iv, 1 uCi, 3.0 hours, blocked (lisinopril); read-out: Biodistribution, Sm. Intest.
quantity: tissue uptake at 3 h (%ID/g)
Numbers only, in %ID/g.

Query: Bench note: what tissue uptake at 3 h did O=C(NCCCC[C@H](N[C@@H](CCc1ccccc1)C(=O)O)C(=O)N1CCC[C@H]1C(=O)O)c1cccc([131I])c1 [^131 I-3, Lisinopril N^ε -radioiodobezamide] show?
Result: 14.2

====

- method: Biodistribution of ^131 I-3 in CD-1 Mice, normal and blocked with lisinopril
- Assay type: in vivo
- protocol-conditions: mouse, small intestine, iv, 1 uCi, 3.0 hours, normal (not blocked); read-out: Biodistribution, Sm. Intest.
quantity: tissue uptake at 3 h (%ID/g)
Numbers only, in %ID/g.

Query: tissue uptake at 3 h lookup needed for O=C(NCCCC[C@H](N[C@@H](CCc1ccccc1)C(=O)O)C(=O)N1CCC[C@H]1C(=O)O)c1cccc([131I])c1 [^131 I-3, Lisinopril N^ε -radioiodobezamide] , thanks.
Result: 27
